# Test system: 485176-168-R4-J1-PDC complex spheroid growth;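 further: spheroids exposed to compounds for seven days before readout; luminescence viability expressed relative to DMSO vehicle wells set as 100%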
# experiment_summary: Anticancer human tumor 485176-168-R4-J1-PDC patient-derived pancreatic adenocarcinoma cell line growth inhibition [RAS]
# conditions: second compound 0.00316 µM; first compound 0.1 µM; active compounds read low
outcome_measure: viability, T/C (%)
Quick reminder: number only, in %, skip the unit.

CC(C)NCC(C(=O)N1CCN(c2ncnc3c2C(C)CC3O)CC1)c1ccc(Cl)cc1 (stereo not drawn) + C=CC(=O)N1CCN(c2nc(OCC3CCCN3C)nc3c(F)c(-c4nc(N)cc(C)c4C(F)(F)F)c(Cl)cc23)C(C)C1 = 97.9
CC(C)n1nc(-c2ccc3oc(N)nc3c2)c2c(N)ncnc21 + C=CC(=O)N1CCN(c2nc(OCC3CCCN3C)nc3c(F)c(-c4nc(N)cc(C)c4C(F)(F)F)c(Cl)cc23)C(C)C1 = 27

Alright, here's another compound for you.
Quick note, viability, T/C for NC1c2ccccc2OC12CCN(c1cnc3c(N4CCCc5ncccc54)n[nH]c3n1)CC2 (stereo not drawn) + C=CC(=O)N1CCN(c2nc(OCC3CCCN3C)nc3c(F)c(-c4nc(N)cc(C)c4C(F)(F)F)c(Cl)cc23)C(C)C1 landed at 77.9
